B1: INTS4 (parent)
chain: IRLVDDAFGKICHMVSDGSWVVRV

# Variants of: B1
# assay: protein stability index of a GFP-peptide fusion (GPS, HEK-293T) (PSI 1-6); higher = more stable;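 note: lentivirally expressed fusions sorted by FACS into six bins by GFP to DsRed ratio, PSI derived from sequencing read proportions per bin multiplied by bin number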
# details: c terminus: a fixed tail appended
Output: class label from protein stability index. Mapping: bucket 1: < 2; bucket 2: ≥ 2 and < 3; bucket 3: ≥ 3

Sample answers from the record:
V4K: bucket 3
I1Y: bucket 2
C12K: bucket 3
C12F: bucket 1

Would you mind sorting K10F into the appropriate category?
bucket 2

# iterate: V24D
bucket 1

// repeat for I1P and report
bucket 2

Also V4N , if possible.
bucket 1

// same read-out, input: S16V
bucket 1

# iterate: I1Q
bucket 3

Subsequent entry: V24P
bucket 3

Same question, S16F this time
bucket 2

Try G18I next.
bucket 3

Query M14V next
bucket 3

Try this variant too: C12N
bucket 2

Note, next up: A7S
bucket 3

Query G9P next
bucket 3

Same lookup for R23I , please.
bucket 3

Again, but for I11H
bucket 3

Can you check G9V next?
bucket 2

Another variant: D6T
bucket 3
